Assayed Target: JAK3 enzyme (Homo sapiens)
Sequence (P52333 whole entry, species assumed): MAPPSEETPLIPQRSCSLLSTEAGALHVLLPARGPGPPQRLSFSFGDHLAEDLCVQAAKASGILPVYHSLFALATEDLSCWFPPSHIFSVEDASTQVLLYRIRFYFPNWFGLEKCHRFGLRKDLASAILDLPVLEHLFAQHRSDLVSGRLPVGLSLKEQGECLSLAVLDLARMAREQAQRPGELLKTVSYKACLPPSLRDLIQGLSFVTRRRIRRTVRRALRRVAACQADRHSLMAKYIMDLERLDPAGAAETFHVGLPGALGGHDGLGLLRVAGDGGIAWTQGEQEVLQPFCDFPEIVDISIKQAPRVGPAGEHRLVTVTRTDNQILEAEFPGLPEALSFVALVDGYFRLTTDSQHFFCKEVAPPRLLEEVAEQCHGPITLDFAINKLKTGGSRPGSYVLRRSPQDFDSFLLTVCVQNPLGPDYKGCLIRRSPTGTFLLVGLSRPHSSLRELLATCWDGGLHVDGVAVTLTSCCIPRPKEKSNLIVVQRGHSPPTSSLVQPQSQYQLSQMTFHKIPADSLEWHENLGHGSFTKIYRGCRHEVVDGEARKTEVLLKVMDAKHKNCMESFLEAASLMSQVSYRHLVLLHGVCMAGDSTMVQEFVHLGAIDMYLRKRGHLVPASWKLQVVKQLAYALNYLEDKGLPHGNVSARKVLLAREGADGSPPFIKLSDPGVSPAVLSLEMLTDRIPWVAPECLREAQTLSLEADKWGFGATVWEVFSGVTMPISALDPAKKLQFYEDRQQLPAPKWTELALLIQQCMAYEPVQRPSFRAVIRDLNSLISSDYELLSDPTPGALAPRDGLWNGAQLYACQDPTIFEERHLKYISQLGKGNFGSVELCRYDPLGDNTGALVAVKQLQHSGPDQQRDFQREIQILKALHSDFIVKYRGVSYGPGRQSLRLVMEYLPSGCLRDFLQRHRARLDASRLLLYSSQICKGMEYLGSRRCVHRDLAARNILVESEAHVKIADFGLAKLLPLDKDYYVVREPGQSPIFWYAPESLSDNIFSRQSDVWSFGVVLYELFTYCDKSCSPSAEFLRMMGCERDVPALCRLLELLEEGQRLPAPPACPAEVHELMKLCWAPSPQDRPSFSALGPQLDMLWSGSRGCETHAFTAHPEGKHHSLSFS
Assay Overview: JAK Caliper Enzyme Assay at 4 μM ATP
Assay type: biochemical
Protocol: Test article was solubilized in dimethyl sulfoxide (DMSO) to a stock concentration of 30 mM. An 11-point half log dilution series was created in DMSO with a top concentration of 600 μM. […] Test article and assay controls were added to a 384-well plate. […] Enzyme concentrations and incubation times were optimized for each new enzyme preps and were modified slightly over time to ensure 20%-30% phosphorylation. […]

- Molecule: "C=CC(=O)N1CCN(c2cnc3[nH]cc(C(=O)N[C@@H]4COC[C@@H]4C4CC4)c3n2)CC1(C)C"
  Assayed Target: "JAK3 enzyme (Homo sapiens)"
  Unit Label: "nM"
  IC50: 1.57
- Molecule: "C=CC(=O)N1CCC(Oc2cnc3[nH]cc(C(=O)NC4CC(F)(F)C4)c3n2)CC1"
  Assayed Target: "JAK3 enzyme (Homo sapiens)"
  Unit Label: "nM"
  IC50: 0.922
- Molecule: "C=CC(=O)N1C[C@@H](Nc2cnc3[nH]cc(C(=O)NCC)c3n2)CC[C@H]1C (single isomer, unassigned) [Example 75]"
  Assayed Target: "JAK3 enzyme (Homo sapiens)"
  Unit Label: "nM"
  IC50: 1.6

* * *

Assayed Target: JAK3 enzyme (Homo sapiens)
Assay Overview: JAK Caliper Enzyme Assay at 1 mM ATP
Type: biochemical
Assay Readout: log10 of IC50 (log10 of the value in nM)

- Compound: "C=CC(=O)N1CC[C@H](Oc2cnc3[nH]cc(C(=O)N[C@@H](C)COC)c3n2)C[C@H]1C (single isomer, unassigned)"
  log10 of IC50: 1.90
- Compound: "C=CC(=O)N1CCC(Oc2cnc3[nH]cc(C(=O)NC(C)(C)CC)c3n2)CC1"
  log10 of IC50: 1.81
- Compound: "C=CC(=O)N1CCC[C@H](Nc2cnc3[nH]cc(C(=O)NCC)c3n2)C1 (single isomer, unassigned)"
  log10 of IC50: 1.73
- Compound: "C=CC(=O)N1CCC(COc2cnc3[nH]cc(C(=O)N[C@@H](C)COC)c3n2)C1 (mixture of isomers)"
  log10 of IC50: 2.80
- Compound: "C=CC(=O)N1CCN(c2cnc3[nH]cc(C(=O)N[C@H](C)COCc4ccccc4)c3n2)CC1(C)C"
  log10 of IC50: 2.93
- Compound: "C=CC(=O)N1CCN(c2cnc3[nH]cc(C(=O)NC[C@H](C)CC(F)(F)F)c3n2)CC1"
  log10 of IC50: 1.41

* * *

Catalogue of IC50 values
Assayed Target: UniProtKB P52333
Assay Overview: JAK Caliper Enzyme Assay at 4 μM ATP
Format: biochemical
Experimental: Test article was solubilized in dimethyl sulfoxide (DMSO) to a stock concentration of 30 mM. An 11-point half log dilution series was created in DMSO with a top concentration of 600 μM. […] Test article and assay controls were added to a 384-well plate. […] Enzyme concentrations and incubation times were optimized for each new enzyme preps and were modified slightly over time to ensure 20%-30% phosphorylation. […]

- Molecule: "C=CC(=O)N1CCN(c2cnc3[nH]cc(C(=O)NC4CCC4)c3n2)CC1(C)C"
  Assayed Target: "UniProtKB P52333"
  Unit Label: "nM"
  IC50: 1.29
- Molecule: "C=CC(=O)N1CCC(Oc2cnc3[nH]cc(C(=O)NC(C)(C)CC)c3n2)CC1"
  Assayed Target: "UniProtKB P52333"
  Unit Label: "nM"
  IC50: 0.609
- Molecule: "C=CC(=O)N1CC[C@@H](Oc2cnc3[nH]cc(C(=O)N[C@@H](C)COC)c3n2)C[C@@H]1C (single isomer, unassigned) [Example 73]"
  Assayed Target: "UniProtKB P52333"
  Unit Label: "nM"
  IC50: 0.971
- Molecule: "C=CC(=O)N1CC[C@@H](Nc2cnc3[nH]cc(C(=O)NCCC(F)(F)F)c3n2)[C@@H](OC)C1"
  Assayed Target: "UniProtKB P52333"
  Unit Label: "nM"
  IC50: 1.23

From: patent US10703756B2
